organism: Homo sapiens; experiment: Selectivity for PPARdelta over PPARalpha
value type: Ratio EC50

compound | measured
Cc1oc(-c2ccccc2)nc1CCOc1ccc2c(c1)CCC2CC(=O)O (centres undefined) | 32

(1) Cc1oc(-c2ccccc2)nc1CCOc1ccc2c(c1)CCC2C(C)C(=O)O (centres undefined)
(2) COC(C(=O)O)C1CCc2cc(OCCc3nc(-c4ccccc4)oc3C)ccc21 (centres undefined)
(3) CCC(C(=O)O)C1CCc2cc(OCCc3nc(-c4ccccc4)oc3C)ccc21 (centres undefined)
Please order the records by their reported Ratio EC50, lowest number first. Show the ranking through the labels, in the order asked for. 2, 3, 1

* * *

target: Peroxisome proliferator-activated receptor alpha (Homo sapiens, UniProt Q07869); experiment: Agonist activity at PPARalpha by FRET assay
Sequence (Q07869 whole entry): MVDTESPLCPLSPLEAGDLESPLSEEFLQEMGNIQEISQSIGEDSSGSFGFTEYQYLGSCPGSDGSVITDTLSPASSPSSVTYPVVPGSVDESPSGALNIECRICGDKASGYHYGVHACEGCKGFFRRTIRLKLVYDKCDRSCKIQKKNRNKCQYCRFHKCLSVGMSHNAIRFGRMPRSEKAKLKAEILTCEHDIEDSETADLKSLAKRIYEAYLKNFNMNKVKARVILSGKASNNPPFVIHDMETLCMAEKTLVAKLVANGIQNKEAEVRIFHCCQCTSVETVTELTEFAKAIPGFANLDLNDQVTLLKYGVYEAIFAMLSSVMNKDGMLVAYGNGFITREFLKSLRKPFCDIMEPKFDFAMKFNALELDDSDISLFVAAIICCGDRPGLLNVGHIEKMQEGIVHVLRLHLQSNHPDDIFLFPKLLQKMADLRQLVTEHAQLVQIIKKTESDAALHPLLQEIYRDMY
value type: EC50 (µM)

Below: 4 compounds and their reported EC50.
compound | measured
CCc1ccc(-c2nc(CCOc3ccc4c(c3)CC[C@H]4CC(=O)O)c(C)o2)cc1 | 0.078
Cc1oc(-c2ccc(F)cc2)nc1CCOc1ccc2c(c1)CC[C@H]2CC(=O)O | 0.504
CCc1oc(-c2ccc(C)cc2)nc1CCOc1ccc2c(c1)CC[C@H]2CC(=O)O | 1.02
Cc1c(CCOc2ccc3c(c2)CC[C@H]3CC(=O)O)nc(-c2ccccc2)n1C | 10

(I) Cc1c(CCOc2ccc3c(c2)CC[C@H]3CC(=O)O)nc(-c2ccc(-c3ccccc3)cc2)n1C
(II) COc1cccc(-c2nc(CCOc3ccc4c(c3)CC[C@H]4CC(=O)O)c(C)s2)c1
Hi there, can you help? I need to know whether I or II has lower measured EC50. Refer to your chosen item by its label in the answer. II
(II: 6.96 µM, I: 10 µM)

* * *

biological target: Peroxisome proliferator-activated receptor alpha (Homo sapiens) (UniProt Q07869); experiment: Agonist activity at PPARalpha by FRET assay; format: functional
value type: Activity (%)

compound | result unit | Activity
Cc1oc(-c2ccccc2)nc1CCOc1ccc2c(c1)OCC2CC(=O)O (centres undefined) | % | 15

(1) Cc1oc(-c2ccccc2)nc1CCOc1ccc2c(c1)C(C)(C)CC2CC(=O)O (centres undefined)
(2) Cc1oc(-c2ccccc2)nc1CCOc1ccc2c(c1)CC(C)C2CC(=O)O (centres undefined)
(3) Cc1oc(-c2ccccc2)nc1CCOc1ccc2c(c1)CCC[C@H]2CC(=O)O
Please order the records by their reported Activity, lowest number first. Show the ranking through the labels, in the order asked for. 1, 2, 3

* * *

target: Peroxisome proliferator-activated receptor alpha (Homo sapiens, UniProt Q07869); assay: Agonist activity at PPARalpha by FRET assay
value type: EC50 (µM)

Below: 5 compounds and their reported EC50.
compound | value type | measured
Cc1oc(-c2ccc(-c3ccccc3)cc2)nc1CCOc1ccc2c(c1)CC[C@H]2CC(=O)O | EC50 | 2.72
Cc1sc(-c2ccccc2F)nc1CCOc1ccc2c(c1)CC[C@H]2CC(=O)O | EC50 | 10
CCc1oc(-c2ccccc2)nc1CCOc1ccc2c(c1)CC[C@H]2CC(=O)O | EC50 | 10
Cc1oc(-c2cccc(F)c2)nc1CCOc1ccc2c(c1)CC[C@H]2CC(=O)O | EC50 | 1.69
Cc1sc(-c2cccc(F)c2)nc1CCOc1ccc2c(c1)CC[C@H]2CC(=O)O | EC50 | 6.53

(1) Cc1sc(-c2ccccc2)nc1CCOc1ccc2c(c1)CC[C@H]2CC(=O)O
(2) Cc1oc(-c2ccc(C(C)(C)C)cc2)nc1CCOc1ccc2c(c1)CC[C@H]2CC(=O)O
Hi there, can you help? I need to know whether 1 or 2 has lower measured EC50. Refer to your chosen item by its label in the answer. 2
(2: 0.546 µM, 1: 10 µM)
